# credit: paper PMC11243149

- TARGET OR TEST SYSTEM: GluA2 (Homo sapiens)
- Construct: expressed in transfected cells; host or cells: HEK293T
- Sequence (P42262 25-883 isoform P42262-2 limits assumed, species assumed): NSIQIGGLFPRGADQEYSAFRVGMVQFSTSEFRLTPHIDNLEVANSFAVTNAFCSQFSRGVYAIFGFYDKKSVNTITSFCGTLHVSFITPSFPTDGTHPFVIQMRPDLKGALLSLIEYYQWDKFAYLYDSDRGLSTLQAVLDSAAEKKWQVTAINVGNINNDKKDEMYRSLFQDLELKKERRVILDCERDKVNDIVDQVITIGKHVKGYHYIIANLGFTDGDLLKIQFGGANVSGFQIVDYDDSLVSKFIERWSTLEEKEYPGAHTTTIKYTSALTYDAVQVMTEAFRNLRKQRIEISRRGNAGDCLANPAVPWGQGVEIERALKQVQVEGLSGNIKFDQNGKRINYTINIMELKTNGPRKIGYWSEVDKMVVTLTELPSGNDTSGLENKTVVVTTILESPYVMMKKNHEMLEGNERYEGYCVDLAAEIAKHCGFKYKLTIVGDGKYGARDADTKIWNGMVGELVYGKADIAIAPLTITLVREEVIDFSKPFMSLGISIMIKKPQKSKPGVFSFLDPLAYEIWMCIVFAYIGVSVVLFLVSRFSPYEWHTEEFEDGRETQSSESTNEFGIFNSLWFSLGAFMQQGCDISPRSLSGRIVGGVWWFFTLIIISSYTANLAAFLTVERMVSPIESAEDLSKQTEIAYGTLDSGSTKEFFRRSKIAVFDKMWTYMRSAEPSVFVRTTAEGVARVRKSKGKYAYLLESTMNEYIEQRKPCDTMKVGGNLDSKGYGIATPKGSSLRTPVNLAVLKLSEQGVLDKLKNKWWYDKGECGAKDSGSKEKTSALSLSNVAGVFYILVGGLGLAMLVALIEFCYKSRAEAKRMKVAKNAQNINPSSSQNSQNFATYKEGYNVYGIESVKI
- EXPERIMENTAL PROTOCOL: Whole-cell patch-clamp recordings of homomeric GluA2 AMPAR in transfected HEK293T cells
- Format: cell-based
- ASSAY CONTEXT: weighted tau of deactivation, 10 mM glutamate for 1 ms, with TC compound, glutamate alone 2.3±0.1
Measured t deact by item
I only need the number, in ms, no unit after it.

Would you please look over these solved cases?
- COMPOUND: "COc1ccc(-c2nc(C(=O)Nc3ccc(OC)c(OC)c3)cs2)cc1 [TC-1]"
  TEST VALUE: 5.9
- COMPOUND: "COc1ccc(-c2nc(C(=O)Nc3ccc(C(C)(C)C)cc3)cs2)cc1 [TC-4]"
  TEST VALUE: 3.4
- COMPOUND: "COc1ccc(-c2nc(C(=O)Nc3cc(OC)c(OC)c(OC)c3)cs2)cc1 [TC-2]"
  TEST VALUE: 6.3
- COMPOUND: "COc1ccc(-c2nc(C(=O)Nc3cc(OC)ccc3OC)cs2)cc1 [TC-5]"
  TEST VALUE: 5.8

Short answer for COc1ccc(-c2nc(C(=O)Nc3ccccc3)cs2)cc1 [TC-3] : t deact was 3.5
